# TARGET_UNDER_TEST: T1, HSP70 (human HSP70; the antigen of the binning, humanization and variant binding assays) (human, UniProt P0DMV8 1-641, limits assumed)
# T1 construct: also called hu HSP70
# ASSAY_METHOD_TEXT: BLI, antibody on sensor
The binders listed here are annotated with their koff.
OBSERVED_PROPERTY: koff

binder="h77A-24 (antibody, V domains shown) VH: QIQLVQSGPEVKKPGESVKVSCKASGYTFTNYGMNWVRQAPGKGLEWMGWINTYTGEPTYADDFKGRVTITRDTSASTAYMELSSLRSEDTAVYFCARYDHAMDYWGQGTSVTVSS VL: DIQMTQSPSSLSASVGDRVTITCKSSQSLLNSGTRKNYLAWYQQKPGKVPKLLIYWTSTRESGVPSRFSGSGSGTDFTLTISSLQPEDVATYYCKQSYTLYTFGGGTKLEIK" reading="0.000294 s⁻¹"
binder="h77A-3 (antibody, V domains shown) VH: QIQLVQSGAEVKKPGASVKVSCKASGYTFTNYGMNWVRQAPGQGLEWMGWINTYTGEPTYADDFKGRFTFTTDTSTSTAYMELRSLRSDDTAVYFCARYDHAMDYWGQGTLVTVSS VL: DVVMTQSPDSLAVSLGERVTINCKSSQSLLNSGTRKNYLAWYQQKPGQSPKLLIYWTSTRESGVPDRFSGSGSGTDFTLTISSLQAEDVAVYYCKQSYTLYTFGQGTKLEIK" reading="0.000305 s⁻¹"
binder="77A antibody (clone 77A, murine anti-HSP70 monoclonal antibody) (antibody, V domains shown, murine hybridoma antibody; its isotype control is IgG2B; also called mAb 77A) VH: QIQLVQSGPELKKPGETVKISCKASGYTFTNYGMNWVKQAPGKGLKWMGWINTYTGEPTYADDFKGRFAFSLETSATTAYLQINNLKNEDTATYFCARYDHAMDYWGQGTSVTVSS VL: DIVMSQSPSSLAVSAGEKVTMSCKSSQSLLNSGTRKNYLAWYQQKPGQSPKLLIYWTSTRESGVPDRFTGSGSGTDFTLTINSVQAEDLAVYYCKQSYTLYTFGGGTKLEIK" reading="8.08e-05 s⁻¹"
binder="h77A-6 (antibody, V domains shown) VH: QIQLVQSGAEVKKPGSSVKVSCKASGYTFTNYGMNWVRQAPGQGLEWMGWINTYTGEPTYADDFKGRFTFTADESTSTAYMELSSLRSEDTAVYFCARYDHAMDYWGQGTLVTVSS VL: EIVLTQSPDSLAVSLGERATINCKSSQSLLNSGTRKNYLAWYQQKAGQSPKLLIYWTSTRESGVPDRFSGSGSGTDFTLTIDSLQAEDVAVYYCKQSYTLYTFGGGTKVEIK" reading="0.00014 s⁻¹"
binder="chimeric 77A with a human IgG1 Fc domain (antibody, V domains shown, also called Chimera IgG1; IgG1 Chimera) VH: QIQLVQSGPELKKPGETVKISCKASGYTFTNYGMNWVKQAPGKGLKWMGWINTYTGEPTYADDFKGRFAFSLETSATTAYLQINNLKNEDTATYFCARYDHAMDYWGQGTSVTVSS VL: DIVMSQSPSSLAVSAGEKVTMSCKSSQSLLNSGTRKNYLAWYQQKPGQSPKLLIYWTSTRESGVPDRFTGSGSGTDFTLTINSVQAEDLAVYYCKQSYTLYTFGGGTKLEIK" reading="9.94e-05 s⁻¹"
